# TARGET_OR_SYSTEM: Casein kinase I isoform gamma-1 (Homo sapiens)
# CONDITION_CONTEXT: at 1 µM
MEASURED_ATTRIBUTE: inhibition (%)
Reply with just the number (in %).

>>> df
                           molecular_string  value_observed
0  COc1ccc2ncn(-c3cc(O[C@H](C)c4ccccc4C(F)(F)F)c(C(N)=O)s3)c2c1            -0.1

Input line: API: value(readout=inhibition, system=Casein kinase I isoform gamma-1 (Homo sapiens)) for record CS(=O)(=O)Nc1ccc(-c2cc(-c3ccccc3)cc(C(N)=O)c2N)cc1
Output line: 0.84

Input line: API: value(readout=inhibition, system=Casein kinase I isoform gamma-1 (Homo sapiens)) for record Cc1c2ccc(N(C)c3ccnc(Nc4cccc(S(N)(=O)=O)c4)n3)cc2nn1C
Output line: 1.52

Input line: API: value(readout=inhibition, system=Casein kinase I isoform gamma-1 (Homo sapiens)) for record COc1cccc(-n2ncc3c(N/N=C/c4ccc(C(=O)NCCN(C)C)cc4)ncnc32)c1
Output line: 11.7

Input line: API: value(readout=inhibition, system=Casein kinase I isoform gamma-1 (Homo sapiens)) for record Fc1cccc(COc2ccc(Nc3ncncc3C#Cc3ccccc3)cc2Cl)c1
Output line: 4.53

Input line: API: value(readout=inhibition, system=Casein kinase I isoform gamma-1 (Homo sapiens)) for record O=C(O[C@H]1CN[C@H](C#Cc2cc3ncnc(Nc4ccc(OCc5cccc(F)c5)c(Cl)c4)c3s2)C1)N1CCOCC1
Output line: 5.41

Input line: API: value(readout=inhibition, system=Casein kinase I isoform gamma-1 (Homo sapiens)) for record Cc1cc(O)cc(C)c1/C=C/c1cncc(C(N)=O)c1
Output line: 3.19

Input line: API: value(readout=inhibition, system=Casein kinase I isoform gamma-1 (Homo sapiens)) for record c1cnn2ncc(-c3ccnc(NCCCN4CCOCC4)n3)c2c1;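 further: reported value is the mean inhibition of CK1 gamma-1 kinase activity across replicate measurements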
Output line: 4.83
